system: rat brain cortical membranes ([35S]-TBPS binding)
test-name: Steroid inhibition of [35S]-TBPS binding (radioligand displacement)
condition-notes: 3 nM [35S]-TBPS, in the presence of 5 μM GABA
pIC50: −log10 of the molar value.
pIC50 reference

Could you share which pIC50 value was measured for COc1cc(OC)cc(C(=O)[C@H]2CC[C@H]3[C@@H]4CC[C@@H]5C[C@](C)(O)CC[C@@H]5[C@H]4CC[C@]23C)c1 [Compound 130] ? 7.30 to 7.70

Need pIC50, item COC[C@]12CC[C@@](C)(O)C[C@@H]1CC[C@H]1[C@@H]3CC[C@H](C(=O)c4ccc(OC(F)(F)F)cc4)[C@@]3(C)CC[C@@H]12 [Compound 102] 7.00 to 7.30

Please report the recorded pIC50 for COC[C@]12CC[C@@](C)(O)C[C@@H]1CC[C@H]1[C@@H]3CC[C@H](C(=O)c4ccc(C)c(C)c4)[C@@]3(C)CC[C@@H]12 [Compound 95] . < 7.00

Returns the measured pIC50 for the input molecule. Input: C[C@@]1(O)CC[C@H]2[C@H](CC[C@@H]3[C@@H]2CC[C@]2(C)[C@@H](C(=O)c4ccccc4)CC[C@@H]32)C1 [Compound 1] > 7.70

What does the record list as pIC50 for Cc1ccc(C(=O)[C@H]2CC[C@H]3[C@@H]4CC[C@@H]5C[C@](C)(O)CC[C@]5(C)[C@H]4CC[C@]23C)cc1F [Compound 27] ? 7.30 to 7.70

// pIC50 lookup, key: C[C@@]1(O)CC[C@@]2(C)[C@@H](CC[C@@H]3[C@@H]2CC[C@]2(C)[C@@H](C(=O)c4ccccn4)CC[C@@H]32)C1 [Compound 113] < 7.00
